Value source: the Human Domainome abundance scans (Beltran et al. 2025)

B1: Zinc finger MYM-type protein 3, residues 405 to 444; numbered along this chain, Q14202 (parent)
chain: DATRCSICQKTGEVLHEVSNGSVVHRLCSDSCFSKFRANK

- Variants of: B1
- experiment: abundance fitness (aPCA) (normalised: wild type 0, dead -1); higher = more abundant; growth selection in yeast, the domain comes from the species named
- condition-info: Homo sapiens
abundance fitness vs -0.2: at or above is met, below is not met.

Below are worked cases with known answers.
V14A	met
K35T	met
R37I	not met
T3G	met
L27E	not met

Okay, now this variant:
Qu. Is it the case that K10E has abundance fitness reaching or exceeding -0.2?
Ans. met
